Data provenance: PubChem BioAssay (NCI)

test system: T-47D breast; assay: NCI tumour cell line growth inhibition, 48 h; in the data active = GI50 below about 0.43 µM; inactive = the rest
Please answer using one outcome listed in active, inactive

Look over these answered cases.
| compound | subjectOfTest | labelClass |
| --- | --- | --- |
| C[C@@H](CS[As](C)C)C(=O)N1CCC[C@H]1C(=O)O | T-47D breast | inactive |
| COc1ccc2c(CCCc3ccc(Cl)cc3Cl)c3[n+](cc2c1OC)CCc1cc2c(cc1-3)OCO2 | T-47D breast | active |
| CC(C)c1[nH]nc2c(NCc3ccc(-c4ccccn4)cc3)nc(SCCN(C)C)nc12 | T-47D breast | active |

Dear all, I need the recorded test outcome for Cc1nc2sc(C(=O)Nc3ccccc3)c(N)c2cc1C(O)c1ccccc1 (stereo not drawn) , thank you.
inactive

###

test system: TK-10 renal; test: NCI tumour cell line growth inhibition, 48 h
testReadout: TGI

| compound | result |
| --- | --- |
| COc1cc2c3c(n(CCN4CCOCC4)c(=O)c2cc1OC)-c1ccccc1C3=O | > 100 µM |
| CCOC(=O)N/N=C(\CC)NO | > 100 µM |
| CC1=CC(C)(C)Nc2ccc(Cc3ccc4c(c3)C(C)=CC(C)(C)N4)cc21 | 92.8 µM |
| CC(C)OC(=O)C1(C(C)C)CCc2ccc(C(=O)CCC(=O)O)cc21 (stereo unspecified) | > 100 µM |
| Cc1cc(Cl)ccc1N=C1NC(=O)C(CC(=O)Nc2cccc(C)c2C)S1 (stereo unspecified) | > 100 µM |

Okay, now this compound:
Give a short answer stating reported TGI for `O=c1cc(-c2ccccc2)oc2cc(OCCCCCN3CCOCC3)cc(O)c12` .
> 100 µM

###

tested on: CCRF-CEM leukemia; test: NCI tumour cell line growth inhibition, 48 h
testReadout: TGI

| compound | testReadout | result |
| --- | --- | --- |
| CC(=O)c1c2c(cc3c1CC1(Cc4cc5c(cc4C1)C(=O)CCC5)C3)CCCC2 (configuration not stated) | TGI | 5.01 µM |

State, in one line, measured TGI of `C[C@@H](NC(=O)Cn1c(Cl)nc2ccccc21)c1ccccc1`
> 100 µM

Please report TGI for the following compound: `O=c1[nH]c2ccc(Cl)cc2o1`
> 100 µM

Identify measured TGI corresponding to `Cc1c(Cl)cccc1NC(=O)c1sc2nc3c(cc2c1N)C(=O)CCC3`
> 100 µM

Output measured TGI for this item: `C/C(O)=C(\C=NC(=S)c1cccnc1)C(=O)Nc1ccccc1C`
> 100 µM

Report measured TGI; entry is C[C@@]1(C(=O)O)CCC[C@]2(C)C1CC[C@]13C[C@@](O)(CO)[C@](O)(CC[C@]12O)C3 (some centres not stated)
> 100 µM

Give TGI for the following compound: `O=C1C(Cl)=C(Nc2cc(Cl)ccc2O)C(=O)N1Cc1ccccc1`
54.9 µM

###

// values below are reported log10(TGI)
system: MDA-MB-231 breast; assay: NCI tumour cell line growth inhibition, 48 h
Record value = log10 of TGI given in µM.

Example entries begin here.
| compound | testReadout | measuredNumber |
| --- | --- | --- |
| COC(=O)c1c2c(c(C)[n+]([O-])c1C)C(=O)C(NCc1ccc(F)cc1)=CC2=O | log10(TGI) | 0.64 |
| CN(C)CCNC(=O)c1cccc2c1Oc1cccc([N+](=O)[O-])c1O2 | log10(TGI) | 1.31 |
| O=CC(O)C(O)C1OC(=O)c2cc(O)c(O)c(O)c2C2=C(O)C(O)=C3OC(=O)c4c(c(O)c(O)c5c4C3C2C(=O)O5)-c2c(cc(O)c(O)c2O)C(=O)OCC1O (stereo not drawn) | log10(TGI) | 1.76 |
| CC(C)(C)C1=CC(=C2C=Cc3cc(O)ccc3O2)C=C(C(C)(C)C)C1=O | log10(TGI) | 0.50 |
| CCn1cc(C(=O)N/N=C/c2cccs2)c(=O)c2cc(F)c(N3CCNC(C)C3)c(F)c21 (stereo not drawn) | log10(TGI) | 0.45 |

Okay, now this compound:
Fill in reported log10(TGI) for this entry: `CC(C)c1[nH]nc2c(NCc3ccc(-c4ccccn4)cc3)nc(SCCN(C)C)nc12`
0.92

###

test system: LOX IMVI melanoma; test: NCI tumour cell line growth inhibition, 48 h
testReadout: TGI (µM)
All answers are understood in µM, so give the number only.

| smi | subjectOfTest | TGI, µM |
| --- | --- | --- |
| CC1=CC(C)(C)Nc2ccc(Cc3ccc4c(c3)C(C)=CC(C)(C)N4)cc21 | LOX IMVI melanoma | 82.2 |

Please give the documented TGI of `O=c1oc2ccccc2c(O)c1C(c1cccc(C(c2c(O)c3ccccc3oc2=O)c2c(O)c3ccccc3oc2=O)c1)c1c(O)c2ccccc2oc1=O`
60.2

Dear colleague, please send me the reported TGI for `[Cl][Hg][c]1ccc2ccccc2c1` when you can.
1.97

Read the entry `COC(=O)c1c2c(c(C)[n+]([O-])c1C)C(=O)C(NCc1ccc(F)cc1)=CC2=O` and write its reported TGI.
6.32

###

system: SK-MEL-2 melanoma; assay: NCI tumour cell line growth inhibition, 48 h
Parameter: log10 TGI. Scope: all listed entries.
Please note: log10 values; quantity TGI; unit µM.

Use these answered entries as a reference point.
| compound | subjectOfTest | log10 TGI |
| --- | --- | --- |
| CCCCCCCCCCCCCCCCCCOCC(C[N+]1(C)CCC(O)CC1)OCC (stereo not given) | SK-MEL-2 melanoma | 1.32 |
| CC(C)c1[nH]nc2c(NCc3ccc(-c4ccccn4)cc3)nc(SCCN(C)C)nc12 | SK-MEL-2 melanoma | -0.57 |
| COc1c(B(O)O)cccc1-c1nc2ccc3[nH]ncc3c2c2c1CCCC2 | SK-MEL-2 melanoma | 0.94 |
| Cc1ccc(C(C)C)c(OCC(=O)N/N=C/c2c[nH]c3ccc(Br)cc23)c1 | SK-MEL-2 melanoma | 0.86 |
| CN(C)CCNC(=O)c1cccc2c1Oc1cccc([N+](=O)[O-])c1O2 | SK-MEL-2 melanoma | 1.69 |
| CCC[n+]1cc2cc3c(cc2c2c1-c1cc4c(cc1C2)OCO4)OCO3 (tested in a mixture with another compound) | SK-MEL-2 melanoma | 0.37 |
| O=[N+]([O-])c1cccc(S(=O)(=O)N/N=C/c2cc(I)cc([N+](=O)[O-])c2O)c1 | SK-MEL-2 melanoma | 1.59 |
| [Cl][Hg][c]1ccc2ccccc2c1 | SK-MEL-2 melanoma | 0.59 |

In the following, a different compound is considered.
Tell us which log10 TGI value is on record for `COc1cc2c(NC3CCN(C(C)C)CC3)nc(C3CCCCC3)nc2cc1OCCCN1CCCC1`
0.66

###

tested on: SF-268 CNS; test: NCI tumour cell line growth inhibition, 48 h
testReadout: TGI

Use these answered entries as a reference point.
| compound | subjectOfTest | TGI |
| --- | --- | --- |
| COc1cc2c3c(n(CCN4CCOCC4)c(=O)c2cc1OC)-c1ccccc1C3=O | SF-268 CNS | > 100 µM |
| O=CC(O)C(O)C1OC(=O)c2cc(O)c(O)c(O)c2C2=C(O)C(O)=C3OC(=O)c4c(c(O)c(O)c5c4C3C2C(=O)O5)-c2c(cc(O)c(O)c2O)C(=O)OCC1O (stereo not given) | SF-268 CNS | > 100 µM |

Annotate the compound c1ccc2c(c1)SP1Sc3ccccc3P21 (stereo not given) with its measured TGI.
> 100 µM

Given `CCOC(=O)N/N=C(\CC)NO` , respond with its TGI.
> 100 µM

Quote TGI reported for `O=C(OCc1ccccc1)c1ccc(NCc2cc(O)ccc2O)cc1` please.
2.99 µM

###

system: A498 renal; assay: NCI tumour cell line growth inhibition, 48 h
testReadout: GI50

| compound | GI50 |
| --- | --- |
| COc1cccc(N2CCN(c3ncnc4cc[nH]c34)CC2)c1 | 1.65 µM |
| Cc1cc(-c2nc3n(c2/C=N/N=C(N)N)CCS3)c(C)s1 | 18.5 µM |
| O=C(N=Nc1c(Cl)c(O)c2ccccc2c1O)C(=O)Nc1cccc(C(F)(F)F)c1 | 9.13 µM |
| CC(=O)[CH-]C(=O)c1ccccc1.CC(=O)[CH-]C(=O)c1ccccc1.CC[C@H](/C=C/C(C)[C@H]1CCC2[C@@H]3CC=C4C[C@@H]([O-])CC[C@]4(C)C3CC[C@@]21C)C(C)C.CC[C@H](/C=C/C(C)[C@H]1CCC2[C@@H]3CC=C4C[C@@H]([O-])CC[C@]4(C)C3CC[C@@]21C)C(C)C.Cl.[Ti+4] (stereo partly drawn) | > 25 µM |
| CC(C)(O)CCc1cccc(C(=O)c2cnn(-c3ccc(F)cc3)c2N)c1 | > 18.4 µM |
| CN(C)c1cc2c(Nc3ccc4c(cnn4Cc4ccccc4)c3)ncnc2cn1 | 16.7 µM |
| C[C@@]1(C(=O)O)CCC[C@]2(C)C1CC[C@]13C[C@@](O)(CO)[C@](O)(CC[C@]12O)C3 (stereo partly drawn) | 75.1 µM |

Continue with the compound presented below.
Entry `COc1ccc2c(CCCc3ccc(Cl)cc3Cl)c3[n+](cc2c1OC)CCc1cc2c(cc1-3)OCO2` needs its GI50 filled in; supply it.
1.76 µM
